system: M. tuberculosis clinical isolates; assay: microbe, parasite or virus in culture; format: cell-based; settings: Mycobacterium tuberculosis, H37RV, read-out: MIC H37Rv
Where a name gives a salt, the structure may show the parent alone.
Note to self: MIC under 10 µg/mL means Satisfied, ties and anything higher get Not satisfied.

compound	class assignment
CN[C@@H]1[C@H](O)[C@H](NC)C2O[C@]3(O)C(OC2[C@H]1O)O[C@H](C)C[C@@]3(O)CNCc1ccc(OC)c2c1CCCC2 (stereo partly shown)	Not satisfied
CN[C@@H]1[C@H](O)[C@H](NC)[C@H]2O[C@]3(O)[C@H](O[C@@H]2[C@H]1O)O[C@H](C)C[C@@]3(O)CNCCc1nccs1	Satisfied
CN[C@@H]1[C@H](O)[C@H](NC)[C@H]2O[C@]3(O)[C@H](O[C@@H]2[C@H]1O)O[C@H](C)C[C@@]3(O)CNCCc1ccc(C)cc1 [compound 32, Trihydrochloride]	Satisfied
CN[C@@H]1[C@H](O)[C@H](NC)[C@H]2O[C@]3(O)[C@H](O[C@@H]2[C@H]1O)O[C@H](C)C[C@]3(O)CNCc1ccc(OC(F)(F)F)cc1 (stereo in doubt) [compound 26, Trihydrochloride]	Not satisfied
CN[C@@H]1[C@H](O)[C@H](NC)C2O[C@]3(O)C(OC2[C@H]1O)O[C@H](C)C[C@@]3(O)CNCc1cccc(O)c1 (stereo partly shown)	Not satisfied
CN[C@@H]1[C@H](O)[C@H](NC)[C@H]2O[C@]3(O)[C@H](O[C@@H]2[C@H]1O)O[C@H](C)C[C@@]3(O)CNCCc1ccc(F)cc1 [compound 33, Trihydrochloride]	Satisfied
CN[C@@H]1[C@H](O)[C@H](NC)[C@H]2O[C@]3(O)[C@H](O[C@@H]2[C@H]1O)O[C@H](C)C[C@@]3(O)CNCc1ccc(Cl)s1 [compound 21, Trihydrobromide]	Not satisfied
CN[C@@H]1[C@H](O)[C@H](NC)[C@H]2O[C@]3(O)[C@H](O[C@@H]2[C@H]1O)O[C@H](C)C[C@@]3(O)CNCCc1ccc(OC)cc1 [compound 53, Trihydrochloride]	Satisfied
CN[C@@H]1[C@H](O)[C@H](NC)C2O[C@]3(O)C(OC2[C@H]1O)O[C@H](C)C[C@@]3(O)CNCc1ccc2ccccc2c1 (stereo partly shown)	Not satisfied
CN[C@@H]1[C@H](O)[C@H](NC)[C@H]2O[C@]3(O)[C@H](O[C@@H]2[C@H]1O)O[C@H](C)C[C@@]3(O)CNCc1ccc(C)cc1C [compound 24, Trihydrochloride]	Not satisfied
CN[C@@H]1[C@H](O)[C@H](NC)[C@H]2O[C@]3(O)[C@H](O[C@@H]2[C@H]1O)O[C@H](C)C[C@@]3(O)CNCC(C)c1ccccc1 (stereo partly shown)	Not satisfied
CN[C@@H]1[C@H](O)[C@H](NC)[C@H]2O[C@]3(O)[C@H](O[C@@H]2[C@H]1O)O[C@H](C)C[C@@]3(O)CNCc1ccccn1	Not satisfied
CCOc1ccc(CNC[C@]2(O)C[C@@H](C)O[C@H]3O[C@@H]4[C@@H](O)[C@H](NC)[C@H](O)[C@H](NC)[C@H]4O[C@]32O)cc1 [compound 4, Trihydrochloride]	Not satisfied
CN[C@@H]1[C@H](O)[C@H](NC)[C@H]2O[C@@]3(O)C(=O)C[C@@H](C)O[C@H]3O[C@@H]2[C@H]1O [SPC, reference compound]	Not satisfied
CN[C@@H]1[C@H](O)[C@H](NC)[C@H]2O[C@]3(O)[C@H](O[C@@H]2[C@H]1O)O[C@H](C)C[C@@]3(O)CNc1ccc(OC)cc1 [compound 29, Trihydrochloride]	Not satisfied
CCc1ccc(CNC[C@]2(O)C[C@@H](C)O[C@H]3O[C@@H]4[C@@H](O)[C@H](NC)[C@H](O)[C@H](NC)[C@H]4O[C@]32O)cc1 [compound 3, Trihydrochloride]	Not satisfied
CN[C@@H]1[C@H](O)[C@H](NC)[C@H]2O[C@]3(O)[C@H](O[C@@H]2[C@H]1O)O[C@H](C)C[C@@]3(O)CNCCC1CCOCC1 [compound 52, Trihydrochloride]	Satisfied
CN[C@@H]1[C@H](O)[C@H](NC)[C@H]2O[C@]3(O)[C@H](O[C@@H]2[C@H]1O)O[C@H](C)C[C@@]3(O)CNCCCc1ccccc1 [compound 13, Trihydrochloride]	Satisfied
CN[C@@H]1[C@H](O)[C@H](NC)[C@H]2O[C@]3(O)[C@H](O[C@@H]2[C@H]1O)O[C@H](C)C[C@@]3(O)CNCCc1ccc(C)c(C)c1 [compound 55, Trihydrochloride]	Not satisfied

The reported numbers originate from patent US10266544B2.
